system: CP247; assay: qHTS profiling for inhibitors of Plasmodium falciparum proliferation (AID 504749); also: nearly all actives have a fitted effect of over 60% in size; details: P. falciparum in erythrocytes, SYBR Green DNA, 72 h; series mostly up to 28.7 µM
Results filed as inconclusive are left out. The source made the active and inactive calls. Calls follow the shape of the dose curve; as a rule, active = well fitted inhibition curve with a large enough effect; inconclusive = small, poorly fitted or top-dose-only effect; inactive = flat fitted curve, though single readings scatter.
The reply should name one outcome from y = active, n = inactive

Consider the worked cases shown below.
INSERT INTO assay_data (compound, class_name) VALUES
  ('C[C@]12C=CC(=O)N[C@@H]1CC[C@@H]1C2CC[C@]2(C)C(C(=O)Nc3cc(C(F)(F)F)ccc3C(F)(F)F)CC[C@@H]12 (some centres not stated)', 'n'),
  ('C=C1NC(=O)c2cc(CN(C)c3ccc(C(=O)N[C@@H](CCC(=O)O)C(=O)O)s3)ccc2N1', 'n'),
  ('COC1CC2CCC(C)[C@](O)(O2)C(=O)C(=O)N2CCCCC2C(=O)OC(C(C)CC2CCC(O)C(OC)C2)CC(=O)C(C)/C=C(/C)C(O)C(OC)C(=O)C(C)CC(C)C=CC=C/C=C\1C (some centres not stated)', 'y');

In: Check the results log: what was the call for C=C(NCc1ccccc1)c1ccccc1O ?
Out: n

In: Check the results log: what was the call for CC1(C)O[C@@H]2C[C@H]3[C@@H]4CCC5=CC(=O)C=C[C@]5(C)[C@H]4C(O)C[C@]3(C)[C@]2(C(=O)CO)O1 (some centres not stated) ?
Out: n

In: Check the results log: what was the call for C[S+](C)CC[C@H](N)C(=O)O ?
Out: n

In: Check the results log: what was the call for CC[C@@]1(O)C[C@H](O[C@H]2C[C@@H](N(C)C)[C@@H](O[C@H]3C[C@@H](O)[C@@H](O[C@H]4CCC(=O)[C@@H](C)O4)[C@@H](C)O3)[C@@H](C)O2)c2c(cc3c(c2O)C(=O)c2c(O)cccc2C3=O)[C@H]1C(=O)OC ?
Out: y

---

system: CP262; assay: qHTS profiling for inhibitors of Plasmodium falciparum proliferation (AID 504749); also: nearly all actives have a fitted effect of over 60% in size; details: P. falciparum in erythrocytes, SYBR Green DNA, 72 h; series mostly up to 28.7 µM
Results filed as inconclusive are left out. The source made the active and inactive calls. Calls come from the whole dose curve; as a rule, active = well fitted inhibition curve with a large enough effect; inconclusive = small, poorly fitted or top-dose-only effect; inactive = flat fitted curve, though single readings scatter.
The reply should name one outcome from True = active, False = inactive

Consider the worked cases shown below.
INSERT INTO measurements (compound, class_name) VALUES
  ('CC(C)(C)NC[C@H](O)CSc1nc(-c2ccc(C(N)=O)s2)cs1', 'False'),
  ('CC[C@H](C)[C@H]1O[C@]2(CC[C@@H]1C)C[C@@H]1C[C@@H](C/C=C(\C)[C@H](O[C@@H]3C[C@H](OC)[C@H](O[C@@H]4C[C@H](OC)[C@@H](O)[C@H](C)O4)[C@H](C)O3)[C@@H](C)/C=C/C=C3\CO[C@@H]4[C@H](O)C(C)=C[C@@H](C(=O)O1)[C@]34O)O2', 'True'),
  ('CCN(CC)CCOCCOC(=O)C(CC)(CC)c1ccccc1 (tested in a mixture with another compound)', 'False'),
  ('CC1(C)SC2[C@@H](N=CN3CCCCCC3)C(=O)N2[C@H]1C(=O)O (stereo partly specified)', 'False'),
  ('NC(CSSCC(N)C(=O)O)C(=O)O (stereo unspecified)', 'False'),
  ('CCCSS/C(CCO)=C(/C)N(C=O)Cc1cnc(C)nc1N', 'False'),
  ('C[C@H]1OC(OC2C(O)[C@@H](O)C(OC3C(O)[C@@H](O)C(O)O[C@@H]3CO)O[C@@H]2CO)[C@H](O)C(O)C1N[C@H]1C=C(CO)[C@@H](O)[C@H](O)C1O (stereo partly specified)', 'False'),
  ('COc1ccc(C(=O)/C(Br)=C/C(=O)O)cc1', 'False');

In: Check the results log: what was the call for CC(O)C(N)C(=O)O (stereo unspecified) ?
Out: False

In: Check the results log: what was the call for C#C[C@]1(O)CC[C@H]2[C@H]3[C@H](CC[C@@]21C)C1=C(CC(=O)CC1)C[C@@H]3C ?
Out: False

In: Check the results log: what was the call for Cc1onc(-c2c(F)cccc2Cl)c1C(=O)NC1C(=O)N2C1SC(C)(C)C2C(=O)O (stereo unspecified) ?
Out: False

---

System: PC49
Assay: qHTS profiling for inhibitors of Plasmodium falciparum proliferation (AID 504749); also: nearly all actives have a fitted effect of over 60% in size
Settings: P. falciparum in erythrocytes, SYBR Green DNA, 72 h; series mostly up to 28.7 µM
Protocol: NIH National Institute of Allergy and Infectious Diseases [NIAID] NIH Chemical Genomics Center [NCGC] […] Because mature erythrocytes lack DNA, only Plasmodium-derived DNA is detected. NCGC Assay Protocol Summary: The SYBR Green viability assay was adapted from a method described previously (Plouffe et al., 2008). […] The following morning, fluorescence intensity at 485(14) nm excitation and 535(25) nm emission wavelengths was measured on an EnVision (Perkin Elmer) plate reader. […]
Records with an inconclusive call do not appear. Activity calls are given as the source filed them. Calls follow the shape of the dose curve; as a rule, active = well fitted inhibition curve with a large enough effect; inconclusive = small, poorly fitted or top-dose-only effect; inactive = flat fitted curve, though single readings scatter.
The reply should name one outcome from 1.0 = active, 0.0 = inactive

Consider the worked cases shown below.
INSERT INTO measurements (molecule, class_name) VALUES
  ('C=C1N[C@]2(C(=O)COC(C)=O)[C@@H](C[C@H]3[C@@H]4CCC5=CC(=O)C=C[C@]5(C)[C@H]4[C@@H](O)C[C@@]32C)O1', 0.0),
  ('NCCCCC(N)C(=O)O (stereo not drawn)', 0.0),
  ('C[C@@H]1CCN(C(=O)[C@H](CCCNC(=N)N)NS(=O)(=O)c2cccc3c2NC[C@H](C)C3)[C@@H](C(=O)O)C1', 0.0);

Next:
In: Check the results log: what was the call for O=C1[C@@H]2C[C@@H]3C[C@H]1C[C@@](O)(C3)C2 ?
Out: 0.0

---

Measured activity change, negative = inhibition by item
test: AP1 Signaling Pathway (AID 357); settings: ME-180 (cervical carcinoma) AP-1-bla reporter, EGF-induced, beta-lactamase ratio, 5 h; at 17.2 µM (top of the series) unless noted;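 also: ME-180 reporter cells stimulated with EGF at its EC50 level; % is scaled to controls: 0 for no effect and ±100 for the full control effect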
Results filed as inconclusive are left out. Active and inactive are the calls of the source. Calls come from the whole dose curve; as a rule, active = well fitted curve in either direction with a large enough effect (not every such curve was filed as active); inconclusive = small, poorly fitted or top-dose-only effect, or another doubt; inactive = flat fitted curve, though single readings scatter.

Consider the worked cases shown below.
INSERT INTO results (compound, value_observed) VALUES
  ('CCOC(=O)/C=c1\s/c(=C(\C#N)C(=O)OCC)n(-c2ccccc2)c1=O', '2.08% (inactive)'),
  ('COc1ccc[nH]c1=O', '14.3% (inactive)'),
  ('Cc1ccc(N2C(=O)C3ON(c4ccccc4)C(c4ccncc4)C3C2=O)cc1 (configuration not stated)', '5.13% (inactive)');

In: Identify measured activity change, negative = inhibition corresponding to O=C(CN1C(=O)c2ccccc2C1=O)NCc1ccccn1
Out: -3.27% (inactive)

---

Test system: TAB109
Experiment: qHTS profiling for inhibitors of Plasmodium falciparum proliferation (AID 504749); also: nearly all actives have a fitted effect of over 60% in size
Settings: P. falciparum in erythrocytes, SYBR Green DNA, 72 h; series mostly up to 28.7 µM
Experimental: NIH National Institute of Allergy and Infectious Diseases [NIAID] NIH Chemical Genomics Center [NCGC] […] Because mature erythrocytes lack DNA, only Plasmodium-derived DNA is detected. NCGC Assay Protocol Summary: The SYBR Green viability assay was adapted from a method described previously (Plouffe et al., 2008). […] The following morning, fluorescence intensity at 485(14) nm excitation and 535(25) nm emission wavelengths was measured on an EnVision (Perkin Elmer) plate reader. […]
Results filed as inconclusive are left out. Active and inactive are the calls of the source. The call rests on the fitted dose curve; in most records, active means well fitted inhibition curve with a large enough effect; inconclusive means small, poorly fitted or top-dose-only effect; inactive means flat fitted curve, though single readings scatter.
The reply should name one outcome from active, inactive

INSERT INTO assay_data (compound, class_name) VALUES
  ('CC1C(=O)C(=O)C=CN1C (configuration not stated)', 'inactive'),
  ('NC(C(=O)O)c1ccc(O)cc1 (configuration not stated)', 'inactive'),
  ('O=C(O)CC(O)CC(O)/C=C/c1c(C2CC2)nc2ccccc2c1-c1ccc(F)cc1 (configuration not stated)', 'inactive');

In: Check the results log: what was the call for O=[N+]([O-])O[C@H]1CO[C@H]2[C@@H]1OC[C@H]2O ?
Out: inactive

In: Check the results log: what was the call for Cc1cnc(NC(=O)C2C(=O)c3ccccc3S(=O)(=O)N2C)s1 (configuration not stated) ?
Out: inactive

In: Check the results log: what was the call for CO/N=C(/C(=O)N[C@@H]1C(=O)N2C(C(=O)O)=C(CSC(=O)c3ccco3)CSC12)c1csc(N)n1 (some centres not stated) ?
Out: inactive

---

tested on: FAB9; experiment: qHTS profiling for inhibitors of Plasmodium falciparum proliferation (AID 504749); also: nearly all actives have a fitted effect of over 60% in size; also: potency is read from the fitted curve at half-maximal effect; settings: P. falciparum in erythrocytes, SYBR Green DNA, 72 h; series mostly up to 28.7 µM
Records with an inconclusive call do not appear. Active and inactive are the calls of the source. The call rests on the fitted dose curve; in most records, active means well fitted inhibition curve with a large enough effect; inconclusive means small, poorly fitted or top-dose-only effect; inactive means flat fitted curve, though single readings scatter.
Assay Metric: Potency

INSERT INTO assay_data (molecule, experimental_target, value_observed) VALUES
  ('CC(C)C[C@@H](NC(=O)[C@@H](Cc1ccccc1)NC(=O)c1cnccn1)B(O)O', 'FAB9', '141 nM (active)'),
  ('CC(CCC(=O)O)C1CCC2C3C(=O)C[C@@H]4CC(=O)CC[C@@]4(C)C3CC(=O)[C@]12C (some centres undefined)', 'FAB9', 'inactive'),
  ('C=C1C(n2cnc3c(=O)[nH]c(N)nc32)C[C@H](O)[C@H]1CO (some centres undefined)', 'FAB9', 'inactive'),
  ('O=C(OC[C@@H]1O[C@@](O)(COC(=O)c2cccnc2)[C@H](OC(=O)c2cccnc2)[C@H]1OC(=O)c1cccnc1)c1cccnc1', 'FAB9', 'inactive');
